This section presents binders with their documented Ki values.
- ASSAYED_SYSTEM: T1, recombinant human insulin-degrading enzyme (IDE) (human, UniProt P14735 42-1019, limits assumed)
- T1 construct: Used at 1 nM in the in vitro activity assays; immobilised on plates for phage panning
- T1 sequence (looked up): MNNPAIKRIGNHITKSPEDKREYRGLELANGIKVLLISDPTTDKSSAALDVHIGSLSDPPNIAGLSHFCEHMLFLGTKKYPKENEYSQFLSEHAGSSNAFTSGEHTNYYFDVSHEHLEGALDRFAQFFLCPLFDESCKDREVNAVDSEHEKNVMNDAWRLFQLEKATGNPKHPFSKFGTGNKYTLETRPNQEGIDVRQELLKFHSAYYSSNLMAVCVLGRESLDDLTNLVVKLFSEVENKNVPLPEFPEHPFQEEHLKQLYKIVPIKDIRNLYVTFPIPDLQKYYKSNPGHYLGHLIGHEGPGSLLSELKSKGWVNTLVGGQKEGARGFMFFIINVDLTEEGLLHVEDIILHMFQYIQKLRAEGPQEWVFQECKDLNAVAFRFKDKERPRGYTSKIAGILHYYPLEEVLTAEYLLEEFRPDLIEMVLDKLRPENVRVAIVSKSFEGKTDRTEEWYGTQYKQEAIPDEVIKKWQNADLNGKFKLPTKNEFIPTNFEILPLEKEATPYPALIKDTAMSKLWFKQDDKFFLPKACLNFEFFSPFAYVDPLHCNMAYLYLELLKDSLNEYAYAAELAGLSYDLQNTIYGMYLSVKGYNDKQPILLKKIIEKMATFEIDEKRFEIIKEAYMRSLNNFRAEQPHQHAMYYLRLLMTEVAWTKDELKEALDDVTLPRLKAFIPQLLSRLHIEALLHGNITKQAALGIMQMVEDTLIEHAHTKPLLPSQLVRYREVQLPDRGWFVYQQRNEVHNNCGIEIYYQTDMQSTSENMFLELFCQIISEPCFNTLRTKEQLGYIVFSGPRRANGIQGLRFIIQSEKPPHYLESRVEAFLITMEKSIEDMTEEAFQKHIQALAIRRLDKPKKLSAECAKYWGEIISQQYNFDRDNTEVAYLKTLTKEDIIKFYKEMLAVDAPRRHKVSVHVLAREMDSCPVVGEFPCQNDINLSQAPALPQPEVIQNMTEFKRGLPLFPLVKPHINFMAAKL
- MEASUREMENT_DESCRIPTION: IDE activity assay, FRET1 substrate
Bridges are numbered along the chain shown (N, C = ends). Where no end group is shown, it is not given here.
EXPERIMENTAL_READOUT: Ki

INSERT INTO measurements (binder, assay_value) VALUES
  ('Ac-PISGKFFQ-NH2 [P12-4D]', '> 500 µM'),
  ('Ac-FPMPSRPH-NH2 [P12-2D]', '> 500 µM'),
  ('LNFPMPSR-NH2 [P12-2B]', '> 500 µM'),
  ('ACSWWSIHLCGGG (disulfide 2-10 (inferred)) [C7C-1B]', '> 100 µM'),
  ('ACNAGHLSQCG-NH2 (disulfide 2-10 (inferred), also called amidated derivative of C7C-2) [C7C-2A]', '> 500 µM'),
  ('LNFPMPSRPHSS [P12-2]', '> 100 µM'),
  ('LNFPMPSRPHSS-NH2 [P12-2A]', '> 100 µM');

All values here come from patent US11555055B2.
